# TESTED_TARGET: Tyrosyl-tRNA synthetase, putative (Trypanosoma cruzi (strain CL Brener)) (UniProt Q4DSP6)
# Sequence (Q4DSP6 as listed by the source): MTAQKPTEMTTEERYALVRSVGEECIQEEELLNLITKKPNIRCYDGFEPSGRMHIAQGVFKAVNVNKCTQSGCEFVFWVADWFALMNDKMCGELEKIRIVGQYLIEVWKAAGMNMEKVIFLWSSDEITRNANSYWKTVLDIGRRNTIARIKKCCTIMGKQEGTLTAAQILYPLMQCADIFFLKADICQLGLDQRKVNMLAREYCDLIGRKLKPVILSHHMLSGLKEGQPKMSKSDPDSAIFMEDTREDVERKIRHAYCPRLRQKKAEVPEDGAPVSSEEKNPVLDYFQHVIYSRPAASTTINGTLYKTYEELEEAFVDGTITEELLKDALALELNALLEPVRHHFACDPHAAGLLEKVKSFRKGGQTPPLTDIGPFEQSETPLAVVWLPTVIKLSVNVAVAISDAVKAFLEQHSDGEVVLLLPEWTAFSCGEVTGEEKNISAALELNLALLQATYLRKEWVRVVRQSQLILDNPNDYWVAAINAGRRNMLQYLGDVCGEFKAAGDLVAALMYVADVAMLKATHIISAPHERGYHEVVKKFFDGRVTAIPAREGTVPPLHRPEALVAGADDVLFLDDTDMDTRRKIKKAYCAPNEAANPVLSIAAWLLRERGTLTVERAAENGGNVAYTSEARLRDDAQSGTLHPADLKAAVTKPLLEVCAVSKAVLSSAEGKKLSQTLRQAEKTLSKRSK
# EXPERIMENTAL_DETAILS: Trypanosoma cruzi tyrosyl tRNA synthetase (TcYRS) _High Tyrosine SOP; note: in the data most compounds retested in dose-response had high values
# Assay type: functional
# Parameters: scale not given: direction of the effect not stated beside the values
# TEST_SETTINGS: 30 µM
In this section we review reported Percent Effect values for a set of molecules.

[
  {
    "MOLECULE": "Cc1nnc2n1CCN(C(C(=O)NC1CC1)c1ccccc1)C2 (stereo unspecified)",
    "Percent Effect (%)": 3.35
  },
  {
    "MOLECULE": "COCCCN(C)C1CCCN(Cc2noc(C)n2)C1 (stereo unspecified)",
    "Percent Effect (%)": 3.96
  },
  {
    "MOLECULE": "Cc1cn2c(n1)CCC(NC(=O)c1cc(Br)cn1C)C2 (stereo unspecified)",
    "Percent Effect (%)": -1.58
  },
  {
    "MOLECULE": "CCc1ccc(O)c(C(=O)NC2CCN(S(=O)(=O)CC)CC2)c1",
    "Percent Effect (%)": 1.44
  },
  {
    "MOLECULE": "O=C(COC(=O)Cc1cccs1)NCc1cccc(NC(=O)C2CC2)c1",
    "Percent Effect (%)": 5.42
  },
  {
    "MOLECULE": "CCc1nnsc1C(=O)N1CCCN(Cc2cnn(C)c2)CC1",
    "Percent Effect (%)": 0.952
  },
  {
    "MOLECULE": "Cc1cc(NCc2cc3n(n2)CCCN(S(C)(=O)=O)C3)ncn1",
    "Percent Effect (%)": 3.72
  },
  {
    "MOLECULE": "CN(Cc1cc(-c2ccccc2)no1)C1CCCN(c2cccnn2)C1 (stereo unspecified)",
    "Percent Effect (%)": 15.5
  },
  {
    "MOLECULE": "CN(Cc1cncnc1)Cc1cn2c(n1)CN(C1CCOC1)CC2 (stereo unspecified)",
    "Percent Effect (%)": 5.21
  },
  {
    "MOLECULE": "Cc1nccn1C1CCCN(C(=O)c2ccc3c(c2)NC(=O)CO3)C1 (stereo unspecified)",
    "Percent Effect (%)": 6.4
  },
  {
    "MOLECULE": "O=C(c1ccc[nH]1)N1C[C@H](OCc2cccnc2)[C@H]2COC[C@H]21",
    "Percent Effect (%)": 8.91
  }
]

---

# TESTED_TARGET: Tyrosyl-tRNA synthetase, putative (Trypanosoma cruzi (strain CL Brener)) (UniProt Q4DSP6)
# EXPERIMENTAL_DETAILS: Trypanosoma cruzi tyrosyl tRNA synthetase (TcYRS) _High Tyrosine SOP; note: in the data most compounds retested in dose-response had high values
# Format: functional
# Design: scale not given: direction of the effect not stated beside the values
# TEST_SETTINGS: 30 µM
Measured Percent Effect, listed per entry.
READOUT_TYPE: Percent Effect

[
  {
    "COMPOUND": "O=S(=O)(Nc1cnn(C2CCOCC2)c1)c1ccc(F)c(F)c1",
    "READOUT_TYPE": "Percent Effect",
    "READING": "-1.06%"
  },
  {
    "COMPOUND": "CC(=O)NC1CCCN(C(=O)NCc2cccnc2N(C)C)C1 (configuration not stated)",
    "READOUT_TYPE": "Percent Effect",
    "READING": "8.95%"
  },
  {
    "COMPOUND": "Cc1cnn(CCNCCCOc2ccccc2)c1",
    "READOUT_TYPE": "Percent Effect",
    "READING": "6.4%"
  },
  {
    "COMPOUND": "CCCc1cc(C(=O)N2CCCC(n3ccnc3C)C2)[nH]n1 (configuration not stated)",
    "READOUT_TYPE": "Percent Effect",
    "READING": "3.45%"
  },
  {
    "COMPOUND": "COC(=O)c1ccc(N2CCN(CCC#N)C(C)C2)cc1 (configuration not stated)",
    "READOUT_TYPE": "Percent Effect",
    "READING": "5.42%"
  },
  {
    "COMPOUND": "CC(C)CN1CCN(C)C2(CCN(Cc3ccsc3)CC2)C1=O",
    "READOUT_TYPE": "Percent Effect",
    "READING": "7.73%"
  },
  {
    "COMPOUND": "CNS(=O)(=O)CCCN1CCCC1c1cc(C)on1 (configuration not stated)",
    "READOUT_TYPE": "Percent Effect",
    "READING": "0.493%"
  },
  {
    "COMPOUND": "Cc1csc([C@@H]2C[C@@H]3CCN(Cc4cnn(C)c4)C[C@H]3O2)n1",
    "READOUT_TYPE": "Percent Effect",
    "READING": "1.07%"
  },
  {
    "COMPOUND": "O=C(c1ccccn1)N1Cc2nccn2CC(COc2cccnc2)C1 (configuration not stated)",
    "READOUT_TYPE": "Percent Effect",
    "READING": "4.17%"
  },
  {
    "COMPOUND": "CCN(CC)C(=O)c1nnn(Cc2ccccc2)c1OC",
    "READOUT_TYPE": "Percent Effect",
    "READING": "6.35%"
  },
  {
    "COMPOUND": "CCC[C@@H]1CN(S(=O)(=O)c2ccc(C)c(F)c2)C[C@H]1N(C)C",
    "READOUT_TYPE": "Percent Effect",
    "READING": "1.64%"
  },
  {
    "COMPOUND": "Cc1ccc(CC(=O)N2CCc3nnc(N(C)C)cc3C2)cn1",
    "READOUT_TYPE": "Percent Effect",
    "READING": "6.22%"
  }
]

---

# TESTED_TARGET: Ubiquitin-activating enzyme e1, putative (Leishmania donovani (strain BPK282A1)) (UniProt E9BSI1)
# Sequence (E9BSI1 as listed by the source): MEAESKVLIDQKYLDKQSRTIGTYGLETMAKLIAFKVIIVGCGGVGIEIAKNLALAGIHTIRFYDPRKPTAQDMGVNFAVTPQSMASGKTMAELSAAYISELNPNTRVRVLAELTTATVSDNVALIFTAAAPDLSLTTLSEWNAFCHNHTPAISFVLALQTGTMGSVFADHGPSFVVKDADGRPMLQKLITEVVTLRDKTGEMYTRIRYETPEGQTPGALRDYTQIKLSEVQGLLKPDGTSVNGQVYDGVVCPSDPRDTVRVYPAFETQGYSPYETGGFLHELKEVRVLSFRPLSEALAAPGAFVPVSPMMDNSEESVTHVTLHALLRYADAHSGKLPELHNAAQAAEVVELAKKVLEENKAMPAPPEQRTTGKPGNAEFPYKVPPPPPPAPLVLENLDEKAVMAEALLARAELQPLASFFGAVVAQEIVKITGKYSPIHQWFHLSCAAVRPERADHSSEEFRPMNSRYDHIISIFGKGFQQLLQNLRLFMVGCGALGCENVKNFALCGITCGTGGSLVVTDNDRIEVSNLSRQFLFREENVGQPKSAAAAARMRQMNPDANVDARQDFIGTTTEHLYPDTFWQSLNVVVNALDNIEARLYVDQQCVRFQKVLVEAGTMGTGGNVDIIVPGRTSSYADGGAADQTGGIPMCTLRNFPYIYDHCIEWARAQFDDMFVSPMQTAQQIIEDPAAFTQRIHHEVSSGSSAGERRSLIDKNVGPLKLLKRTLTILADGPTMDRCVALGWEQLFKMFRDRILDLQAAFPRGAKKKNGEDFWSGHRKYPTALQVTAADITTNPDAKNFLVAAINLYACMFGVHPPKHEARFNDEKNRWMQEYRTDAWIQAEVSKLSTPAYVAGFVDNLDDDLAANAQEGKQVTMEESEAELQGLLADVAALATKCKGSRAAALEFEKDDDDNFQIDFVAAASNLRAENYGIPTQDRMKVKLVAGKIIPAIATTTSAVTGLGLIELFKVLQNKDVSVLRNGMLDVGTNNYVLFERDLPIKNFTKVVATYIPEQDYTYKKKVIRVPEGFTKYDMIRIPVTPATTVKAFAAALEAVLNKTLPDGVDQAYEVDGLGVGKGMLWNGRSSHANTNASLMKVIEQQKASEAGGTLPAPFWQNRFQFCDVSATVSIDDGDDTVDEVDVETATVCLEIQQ
# EXPERIMENTAL_DETAILS: Leishmania donovani Ubiquitin Activating Enzyme (LdE1)
# Type: functional
# Design: scale not given: direction of the effect not stated beside the values
# TEST_SETTINGS: 30 µM
Potency and affinity values are given separately.
READOUT_TYPE: Percent Effect (%)

[
  {
    "MOLECULE": "Cc1csc2ncc(-c3ccnc(N4CCN(C)CC4)n3)c(=O)n12",
    "READOUT_TYPE": "Percent Effect",
    "READING": 0
  },
  {
    "MOLECULE": "Cc1nn(C)c(C)c1C1CCCN1C(=O)CCc1cscn1 (centres undefined)",
    "READOUT_TYPE": "Percent Effect",
    "READING": -5.26
  },
  {
    "MOLECULE": "CCN(Cc1ccc2c(c1)OCCO2)S(=O)(=O)N(C)C(C)C",
    "READOUT_TYPE": "Percent Effect",
    "READING": 7.79
  },
  {
    "MOLECULE": "CC(C)c1cc(NC(=O)CN2CCc3cncnc3C2)on1",
    "READOUT_TYPE": "Percent Effect",
    "READING": 10.4
  },
  {
    "MOLECULE": "O=C(c1ccc[nH]1)N1C[C@H](OCc2cccnc2)[C@H]2COC[C@H]21",
    "READOUT_TYPE": "Percent Effect",
    "READING": 0
  },
  {
    "MOLECULE": "Cn1nccc1C1CCN(CC(O)c2cccc(F)c2)CC1 (centres undefined)",
    "READOUT_TYPE": "Percent Effect",
    "READING": 5.06
  },
  {
    "MOLECULE": "COCCN1CCCN(C(=O)NC(C)Cn2cccn2)CC1 (centres undefined)",
    "READOUT_TYPE": "Percent Effect",
    "READING": 15.6
  },
  {
    "MOLECULE": "CC(=O)c1cccc(OCCCC(=O)N(C)Cc2cccc(O)c2)c1",
    "READOUT_TYPE": "Percent Effect",
    "READING": 2.7
  },
  {
    "MOLECULE": "CN(C)C(=O)CCCNC(=O)C(c1cccc(F)c1)N(C)C (centres undefined)",
    "READOUT_TYPE": "Percent Effect",
    "READING": 13.5
  },
  {
    "MOLECULE": "CN(C)[C@H]1CCCCN(C(=O)CCc2csc(N)n2)C1",
    "READOUT_TYPE": "Percent Effect",
    "READING": 2.7
  },
  {
    "MOLECULE": "Cc1cccc(CN2CCc3nnc(CN4CCCC4=O)n3CC2)n1",
    "READOUT_TYPE": "Percent Effect",
    "READING": 14.3
  },
  {
    "MOLECULE": "O=C(Nc1ccc(N2CCCC2)nc1)N1CCc2ccccc2C1",
    "READOUT_TYPE": "Percent Effect",
    "READING": 0
  },
  {
    "MOLECULE": "Cc1cc(C)n(Cc2ccc(C(=O)NCCN3CCOCC3)cc2)n1",
    "READOUT_TYPE": "Percent Effect",
    "READING": 4.17
  },
  {
    "MOLECULE": "CN(CCC(F)(F)F)C(=O)[C@H]1CSCN1C(=O)OC(C)(C)C",
    "READOUT_TYPE": "Percent Effect",
    "READING": 0
  },
  {
    "MOLECULE": "COCCCC1CCCN(C(=O)CCc2cc(O)no2)C1 (centres undefined)",
    "READOUT_TYPE": "Percent Effect",
    "READING": 4.17
  },
  {
    "MOLECULE": "Cc1ccc(F)cc1S(=O)(=O)N(C)CC(N)=O",
    "READOUT_TYPE": "Percent Effect",
    "READING": 11
  },
  {
    "MOLECULE": "Cc1cccc2c1cnn2CCCNC(=O)C(C)C",
    "READOUT_TYPE": "Percent Effect",
    "READING": 13
  },
  {
    "MOLECULE": "CS(=O)(=O)N1CCN(C(=O)Cn2ccc3c(Cl)cccc32)CC1",
    "READOUT_TYPE": "Percent Effect",
    "READING": -2.7
  },
  {
    "MOLECULE": "CN(C)CCN1C(=O)CCC12CCN(C(=O)c1cccnc1)CC2",
    "READOUT_TYPE": "Percent Effect",
    "READING": 3.9
  },
  {
    "MOLECULE": "O=C(CCN1C(=O)CCC1=O)Nc1cnn(-c2ccccc2Cl)c1",
    "READOUT_TYPE": "Percent Effect",
    "READING": 10.8
  },
  {
    "MOLECULE": "Cc1cc2ccccc2n1CCC(=O)NCc1ncc[nH]1",
    "READOUT_TYPE": "Percent Effect",
    "READING": 14.9
  },
  {
    "MOLECULE": "CC(C)C(=O)N1CCN(Cc2cc(-c3ccncc3)nn2C)CC1",
    "READOUT_TYPE": "Percent Effect",
    "READING": 12.2
  },
  {
    "MOLECULE": "Cc1noc(C)c1C(=O)N1C[C@H]2CCC[C@@]2(COc2ccccn2)C1",
    "READOUT_TYPE": "Percent Effect",
    "READING": 11.7
  },
  {
    "MOLECULE": "Cc1noc(C)c1C(=O)NCc1ccnc(OCC(F)(F)F)c1",
    "READOUT_TYPE": "Percent Effect",
    "READING": 26.3
  }
]
